Reference source for all entries: ChEMBL document CHEMBL3826967

measurement.target: Botulinum neurotoxin type E (Clostridium botulinum) (UniProt Q00496)
Sequence (Q00496 2-422 limits assumed): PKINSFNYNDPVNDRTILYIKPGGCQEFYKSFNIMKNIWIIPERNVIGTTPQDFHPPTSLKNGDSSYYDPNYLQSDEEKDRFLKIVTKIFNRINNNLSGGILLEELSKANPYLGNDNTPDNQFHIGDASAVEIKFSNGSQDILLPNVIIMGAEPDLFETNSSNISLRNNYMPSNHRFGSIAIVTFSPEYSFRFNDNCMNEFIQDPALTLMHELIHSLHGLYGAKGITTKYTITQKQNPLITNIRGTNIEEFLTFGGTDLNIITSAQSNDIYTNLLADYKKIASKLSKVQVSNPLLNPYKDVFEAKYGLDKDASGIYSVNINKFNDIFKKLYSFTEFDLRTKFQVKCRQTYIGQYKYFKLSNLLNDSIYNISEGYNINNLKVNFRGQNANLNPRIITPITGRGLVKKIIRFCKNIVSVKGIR
method.notes: Inhibition of endopeptidase activity of Clostridium botulinum BoNT/E light chain using SNAP-25 as substrate at 20 uM after 15 mins by HPLC analysis
measurement.label: inhibition
In your response, put the unit directly after the numeric value.

Please review the entries below; each comes with its answer.
record_smiles=O=C(O)c1ccccc1C(=O)c1ccc2oc(O)nc2c1 measurement_label=inhibition value_observed=35%
record_smiles=O=c1c2cc([N+](=O)[O-])ccc2c2ccc([N+](=O)[O-])cc2c(=O)n1-c1ccc2c(c1)Cc1ccccc1-2 measurement_label=inhibition value_observed=24.7%

Next item in the queue.
Item: `O=C(Nc1ccc2c(c1)C(=O)c1ccccc1-2)c1ccccc1` Test system: Botulinum neurotoxin type E (Clostridium botulinum) (UniProt Q00496) Read-out: inhibition Value: ?
12.7%
